Assay target: TRKA (Homo sapiens (Human))
Sequence (P04629 441-796): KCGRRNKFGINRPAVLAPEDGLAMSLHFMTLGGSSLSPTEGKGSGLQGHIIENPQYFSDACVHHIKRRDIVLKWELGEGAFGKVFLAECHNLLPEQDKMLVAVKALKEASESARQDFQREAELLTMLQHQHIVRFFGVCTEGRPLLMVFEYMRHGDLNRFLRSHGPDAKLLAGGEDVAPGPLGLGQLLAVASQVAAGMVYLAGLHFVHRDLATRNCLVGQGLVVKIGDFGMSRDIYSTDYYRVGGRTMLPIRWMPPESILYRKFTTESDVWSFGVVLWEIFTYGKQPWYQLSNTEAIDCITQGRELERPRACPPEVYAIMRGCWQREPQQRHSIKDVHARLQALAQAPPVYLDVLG
Assay info: Isolated TRK enzyme assay (HTRF KinEASE-TK), TRKA
Type: biochemical
Run parameters: read-out: Trka enzyme (IC50)
Quantity kind: pIC50
Give only the number. pIC50 is defined as minus log10 of concentration in molar units.

# Smiles data, Assay target, pIC50
measured = [
    ("CC(C)n1cc(C(=O)c2cncc(NC(=O)c3cccc(C4(C(F)(F)F)N=N4)c3)c2)c2cncnc21", "TRKA (Homo sapiens (Human))", 6.78),
    ("Cn1cc(C(=O)c2cncc(NC(=O)C3(c4ccccc4)CC3)c2)c2cncnc21", "TRKA (Homo sapiens (Human))", 5.01),
    ("Cn1cc(C(=O)c2cncc(NC(=O)Cc3cccc(C(F)(F)F)c3)c2)c2cncnc21", "TRKA (Homo sapiens (Human))", 7.00),
    ("CC(C)n1cc(C(=O)c2cncc(NC(=O)c3cnc4ccnn4c3)c2)c2cncnc21", "TRKA (Homo sapiens (Human))", 5.59),
    ("Cc1c[nH]c(C(=O)Nc2cncc(C(=O)c3cn(C(C)C)c4ncncc34)c2)n1", "TRKA (Homo sapiens (Human))", 6.61),
]

Attention now turns to another entry.
// fetch pIC50 given entry CC(C)n1cc(C(=O)c2cncc(NC(=O)[C@@H](Cc3ccc(C(=O)c4ccccc4)cc3)NC(=O)OC(C)(C)C)c2)c2cncnc21 5.69

----------
Assay target: TRKA (Homo sapiens (Human))
Assay info: Isolated TRK enzyme assay (HTRF KinEASE-TK), TRKA
Format: biochemical
Run parameters: read-out: Trka enzyme (IC50)
Quantity kind: log10 of IC50 (log10 of the value in nM)
Units before log transform: nM; reported quantity: IC50; transform: log10.

# Compound, Quantity kind, Test result
data = [
    ("Cc1cc(C(=O)Nc2cncc(C(=O)c3cn(C(C)C)c4ncncc34)c2)no1 [Example 462]", "log10 of IC50", 3.12),
    ("CC(C)n1cc(C(=O)c2cncc(NC(=O)Cc3ccc4ocnc4c3)c2)c2cnc(N)nc21 [Example 246]", "log10 of IC50", 1.55),
    ("CC(CO)n1cc(C(=O)c2cncc(NC(=O)Cc3ccc4cccnc4c3)c2)c2cnc(N)nc21 (single isomer, unassigned) [Example 216]", "log10 of IC50", 1.50),
    ("CC(C)(CO)n1cc(C(=O)c2cncc(NC(=O)Cc3ccc4cccnc4c3)c2)c2cncnc21 [Example 228]", "log10 of IC50", 1.17),
    ("CC(C)n1cc(C(=O)c2cncc(NC(=O)Cc3cn4cc(Cl)ccc4n3)c2)c2cncnc21 [Example 126]", "log10 of IC50", 1.98),
    ("CC(CO)n1cc(C(=O)c2cncc(NC(=O)Cc3ccc4cccnc4c3)c2)c2cnc(N)nc21 (single isomer, unassigned) [Example 211]", "log10 of IC50", 1.54),
    ("COCC(C)(C)n1cc(C(=O)c2cncc(NC(=O)Cn3ccc(C(F)(F)F)n3)c2)c2cnc(N)nc21 [Example 549]", "log10 of IC50", 0.51),
]

Attention now turns to another entry.
// fetch log10 of IC50 given entry CC(CO)n1cc(C(=O)c2cncc(NC(=O)Cc3cccc(C(F)(F)F)c3)c2)c2cnc(N)nc21 (single isomer, unassigned) [Example 215] 0.64

Data credit: patent US8846698B2
